pIC50: −log10 of the molar value.
Chymotrypsinogen B (Homo sapiens, UniProt P17538): recorded pIC50 for assorted molecules
Sequence (P17538 34-164 limits assumed, other chains not shown): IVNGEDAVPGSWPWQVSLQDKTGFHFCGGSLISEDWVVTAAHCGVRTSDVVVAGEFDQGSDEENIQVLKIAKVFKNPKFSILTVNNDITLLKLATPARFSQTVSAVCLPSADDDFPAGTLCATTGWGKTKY
Sequence (P17538 167-263 limits assumed, other chains not shown): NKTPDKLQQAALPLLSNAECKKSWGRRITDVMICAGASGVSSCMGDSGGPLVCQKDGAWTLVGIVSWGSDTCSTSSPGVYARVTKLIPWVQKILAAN

# lookup: Chymotrypsinogen B (Homo sapiens, UniProt P17538) pIC50, key = CCCCNC(=O)C(=O)[C@H](Cc1ccccc1)NC(=O)C1Cc2cc3c(cc2S(=O)(=O)N1CC)OCCO3 (stereo in doubt)
< 5.00

Next, consider the following molecule.
# lookup: Chymotrypsinogen B (Homo sapiens, UniProt P17538) pIC50, key = CCN1C(C(=O)N[C@@H](Cc2ccccc2)C(=O)C(=O)NCCNS(=O)(=O)c2ccc(-c3ccccn3)s2)Cc2cc3c(cc2S1(=O)=O)OCCO3 (some centres not stated)
< 5.00
